System: SK-MEL-5
Experiment: NCI tumour cell line growth inhibition, 48 h
The source made the active and inactive calls. No stated cut-off is given here; in the data, active = GI50 up to about 1.1 µM and inactive = higher.
Select the correct class. Options are active, inactive and nothing else.

Examples from the recorded data:
{"columns": ["molecule", "system", "labelClass"],
 "data": [
  ["CC(=O)c1ccc(NC(=O)/C(CC(=O)/C=C/c2ccccc2)=N/NC(N)=S)cc1", "SK-MEL-5", "inactive"],
  ["CC(N)Cc1ccc(Cl)c(Cl)c1 (configuration not stated)", "SK-MEL-5", "inactive"],
  ["O=[N+]([O-])CCc1cccc([N+](=O)[O-])c1", "SK-MEL-5", "inactive"],
  ["Cc1cc(OC(=O)c2c(C)cc(OC(=O)c3c(C)cc(O)cc3O)cc2O)cc(O)c1C(=O)O [GYROPHORIC ACID]", "SK-MEL-5", "inactive"],
  ["COc1cc2cc3c4c(cc(OC)c(OC)c4c2cc1OC)CCN3C(=O)CCC(=O)NCCCN(C)C", "SK-MEL-5", "inactive"],
  ["Cc1cc2c(cc1Cl)SSc1cc(Cl)c(C)cc1S(=O)(=O)Nc1nc(N)nn1C(O)n1nc(N)nc1NS2(=O)=O", "SK-MEL-5", "inactive"]
]}

Inquiry: Hey, what did the test say about C=C(C)[C@H]1C2=CC(C(=O)OC)=C(C[C@H](C(=C)C)[C@@H](O)[C@@H](O)C3=C[C@H]1OC3=O)O2 ?
Reply text: inactive

Inquiry: Hey, what did the test say about O=[N+]([O-])C(/C=C(\Cl)[N+](=O)[O-])=C(N1CCCCC1)N1CCCCC1 ?
Reply text: inactive

Inquiry: Hey, what did the test say about N#CCN1CCCCCc2ccccc21 ?
Reply text: inactive

###

System: HL-60
Experiment: NCI tumour cell line growth inhibition, 48 h
Calls of active or inactive are those of the source. No stated cut-off is given here; in the data, active = GI50 up to about 1.1 µM and inactive = higher.
Select the correct class. Options are Y for active, N for inactive and nothing else.

Examples from the recorded data:
{"columns": ["molecule", "labelClass"],
 "data": [
  ["NC(CP(=O)(O)O)C(=O)O (stereo unspecified)", "N"],
  ["O=C(O)/C(O)=C1/C=C(c2ccccc2)c2ccccc21", "N"],
  ["Cc1cc(C)c2c(O)cc(-c3cccc4ccccc34)nc2n1", "Y"],
  ["COc1cc(CNC2c3cc4c(cc3C(c3cc(OC)c(OC)c(OC)c3)[C@H]3C(=O)OCC23)OCO4)cc(OC)c1OC (stereo partly specified)", "Y"]
]}

Inquiry: Hey, what did the test say about O=c1c2ccccc2[nH]c2ccc3c(Cl)n[nH]c3c12 ?
Reply text: N

Inquiry: Hey, what did the test say about CCOC1C(Br)Cn2c(=O)c3cc4ccccc4cc3c(=O)n2C1C (stereo unspecified) ?
Reply text: N

###

Test system: M14
Assay: NCI tumour cell line growth inhibition, 48 h
Active and inactive are the calls of the source. No stated cut-off is given here; in the data, active = GI50 up to about 1.1 µM and inactive = higher.
Select the correct class. Options are active, inactive and nothing else.

Examples from the recorded data:
{"columns": ["compound", "labelClass"],
 "data": [
  ["CC(=O)N(N=O)c1ccc(N(N=O)C(C)=O)cc1", "inactive"],
  ["COc1ccc(-n2c3c(c4c(CN(C)C)c(O)ccc42)C(=O)c2ccccc2C3=O)cc1", "inactive"],
  ["C1=CCN(c2ccccc2)CC1", "inactive"],
  ["Nc1ccc(S(=O)(=O)c2ccc(NCN3C(=O)NC(=O)C(=O)C3=O)cc2)cc1 [ALLANTODAPSONE]", "inactive"],
  ["CCCC(=O)N[C@H]1CCc2cc(OC)c(OC)c(OC)c2-c2ccc(SC)c(=O)cc21", "active"],
  ["Cn1c(S)nnc1CNc1ccc(-c2nnc(S)n2C)cc1", "inactive"],
  ["O=C(O)C(CSC(c1ccccc1)(c1ccccc1)c1ccccc1)/N=C/c1cccs1 (centres undefined)", "active"],
  ["CCCCCC(C)C[C@H]1CO[C@H](c2ccc[nH]2)N[C@H]1C(=O)OC (some centres undefined)", "inactive"]
]}

Inquiry: Hey, what did the test say about COc1ccc(/C=C2\CN(C)C/C(=C\c3ccc(OC)c(OC)c3OC)C2=O)c(OC)c1OC ?
Reply text: active

###

Test system: RXF 393
Test: NCI tumour cell line growth inhibition, 48 h
Calls of active or inactive are those of the source. No stated cut-off is given here; in the data, active = GI50 up to about 1.1 µM and inactive = higher.
Select the correct class. Options are true for active, false for inactive and nothing else.

Examples from the recorded data:
{"columns": ["molecule", "system", "labelClass"],
 "data": [
  ["Oc1c(Cl)cc(CN(Cc2cc(Cl)c(O)c(Cl)c2)C2CCCCC2)cc1Cl", "RXF 393", "false"],
  ["C1=CCN(c2ccccc2)CC1", "RXF 393", "false"],
  ["Oc1nc(S)nc2c1C(c1ccc(Cl)cc1)c1c(O)nc(S)nc1O2", "RXF 393", "true"],
  ["Cc1cc(N(CCC#N)CCC#N)ccc1/C=C1N=C(/C=C\\c2ccccc2)N(c2ccc(Cl)cc2)C\\1=O", "RXF 393", "false"]
]}

Inquiry: Hey, what did the test say about N#Cc1[nH]c(=O)n(-c2cccc3ccccc23)c1N ?
Reply text: false

Inquiry: Hey, what did the test say about OC1c2ccccc2CCC1C(O)(C(F)(F)F)C(F)(F)F (centres undefined) ?
Reply text: false

Inquiry: Hey, what did the test say about CC(N)Cc1ccc(Cl)c(Cl)c1 (centres undefined) ?
Reply text: false

Inquiry: Hey, what did the test say about CCOc1ccc(NC(=O)C(=O)CC(=O)C2=C(C)Nc3ccccc3S2)cc1 ?
Reply text: false

Inquiry: Hey, what did the test say about NC(Cc1ccccc1)C(=O)OCN1C(=O)C2C3C=CC(C2C1=O)C1C2C(=O)N(COC(=O)C(N)Cc4ccccc4)C(=O)C2C31 (centres undefined) ?
Reply text: false

Inquiry: Hey, what did the test say about O=[N+]([O-])C(C(Cl)=C(Cl)Cl)=C(N(Cc1ccccc1)Cc1ccccc1)N(Cc1ccccc1)Cc1ccccc1 ?
Reply text: false

Inquiry: Hey, what did the test say about CC1Cn2c(nc3ccccc32)NC1=O (centres undefined) ?
Reply text: false

Inquiry: Hey, what did the test say about Cc1ccc(-c2c(-c3ccccc3)[nH]c(C)c2C(=O)ONC(=O)c2ccccc2)cc1 ?
Reply text: false

Inquiry: Hey, what did the test say about CNC(=O)OCC1=C(COC(=O)NC)C(C)N(c2ccc(OC)cc2)C1 (centres undefined) ?
Reply text: false

Inquiry: Hey, what did the test say about Cc1ccc(C(=O)Nc2ccc(CP(=O)(O)O)cc2CP(=O)(O)O)cc1NC(=O)c1cccc(NC(=O)Nc2cccc(C(=O)Nc3cc(C(=O)Nc4ccc(CP(=O)(O)O)cc4CP(=O)(O)O)ccc3C)c2)c1 ?
Reply text: false

Inquiry: Hey, what did the test say about CCOC(=O)C(C[Si](C)(C)C)P(=O)(OCC)OCC (centres undefined) ?
Reply text: false

Inquiry: Hey, what did the test say about Cn1c(=O)nc2n(-c3cccc(Cl)c3)c3ccccc3nc-2c1=O ?
Reply text: false

Inquiry: Hey, what did the test say about O=[N+]([O-])c1ccc(Cl)cc1C1ON=C(c2ccccc2)N1C12CC3CC(CC(C3)C1)C2 (centres undefined) ?
Reply text: false

Inquiry: Hey, what did the test say about CCC(=O)OCc1ccc2oc(=O)c(C(=O)Oc3cncc(Cl)c3)cc2c1 ?
Reply text: false

Inquiry: Hey, what did the test say about C[C@]12CC[C@H]3[C@@H](CC=C4C[C@@H](N5CCCC5)CC[C@@]43C)[C@@H]1C/C(=C\c1ccc([N+](=O)[O-])cc1)[C@@H]2O ?
Reply text: false

Inquiry: Hey, what did the test say about N#Cc1c(N2CCCC2)ncn(-c2ccccc2)c1=S ?
Reply text: false

Inquiry: Hey, what did the test say about CN1C2CCC1CC(CCOC(c1ccc(F)cc1)c1ccc(F)cc1)C2 (centres undefined) ?
Reply text: false

###

System: SF-539
Assay: NCI tumour cell line growth inhibition, 48 h
The source made the active and inactive calls. No stated cut-off is given here; in the data, active = GI50 up to about 1.1 µM and inactive = higher.
readoutKind: GI50

Recorded results for 2 compounds are shown here.
{"columns": ["compound", "system", "GI50"],
 "data": [
  ["O=C1N/C(=N/N=C\\C(O)C(O)C(O)C(O)CO)N/C1=C/c1ccc(Cl)cc1 (stereo not drawn)", "SF-539", "> 100 µM (inactive)"],
  ["CNC(=O)OCC1=C(COC(=O)NC)C(C)N(c2ccc(OC)cc2)C1 (stereo not drawn)", "SF-539", "59.8 µM (inactive)"]
]}

Kindly review the next compound as well.
Inquiry: Quick check: GI50 of CN1C[C@@H]2CCCN2P1Oc1cccc2cccnc12 (stereo partly drawn) ?
Reply text: 44.9 µM (inactive)

###

Let's look at some compounds and their measured GI50.
Tested on: Malme-3M
Experiment: NCI tumour cell line growth inhibition, 48 h
Calls of active or inactive are those of the source. No stated cut-off is given here; in the data, active = GI50 up to about 1.1 µM and inactive = higher.

Recorded results for 8 compounds are shown here.
{"columns": ["compound", "GI50"],
 "data": [
  ["CCOC(=O)/C=C/c1ccccn1", "> 100 µM (inactive)"],
  ["CCOC1C(Br)Cn2c(=O)c3cc4ccccc4cc3c(=O)n2C1C (stereo not given)", "> 100 µM (inactive)"],
  ["Cc1oc2nc1C(=O)NCc1nc(cs1)C(=O)N[C@H](C(C)C)c1nc(cs1)C(=O)N[C@H]2C", "> 100 µM (inactive)"],
  ["O=S(=O)(/C=C/CS(=O)(=O)c1ccccc1)c1ccccc1", "29.6 µM (inactive)"],
  ["CN(C)c1ccc(/C=N/NC2=N/C(=C\\c3ccco3)C(=O)N2)cc1", "> 100 µM (inactive)"],
  ["CC(C)(Oc1ccc2c(=O)cc(-c3ccccc3)oc2c1)C(=O)N1CCN(c2ccccc2)CC1", "4.84 µM (inactive)"],
  ["Cc1ccc(C(=O)/C=C/c2ccccc2Cl)cc1", "23.5 µM (inactive)"],
  ["CC1=CC(=O)c2cccc(O)c2C1=O", "1.62 µM (inactive)"]
]}

Inquiry: Quick check: GI50 of CC(=O)c1ccc(NC(=O)/C(CC(=O)/C=C/c2ccccc2)=N/NC(N)=S)cc1 ?
Reply text: > 100 µM (inactive)

Inquiry: Quick check: GI50 of CC1C(c2ccccc2O)c2cc3c(cc2OC1N1CCOCC1)OCO3 (stereo not given) ?
Reply text: 16.9 µM (inactive)
